biological target: HIV-1 protease (Human immunodeficiency virus type 1 group M subtype B, UniProt P04585); assay: biochemical; details: read-out: HIV-1 Protease % Inhib, dose 30.000 uM
property measured: inhibition at 30 µM (%)
Report as a plain number; the unit % is understood.

>  <compound>
CC(C)CCC1CCCCc2c1oc(=O)c(C(c1ccccc1)C1CC1)c2O (stereo not shown)

>  <inhibition at 30 µM [%]>
93.1

$$$$
>  <compound>
CN(C)c1ccc(S(=O)(=O)Nc2cccc(C(c3c(O)c4c(oc3=O)CCCCCC4)C3CC3)c2)cc1 (stereo not shown)

>  <inhibition at 30 µM [%]>
94.6

$$$$
>  <compound>
N#Cc1ccccc1S(=O)(=O)Nc1cccc(C(c2c(O)c3c(oc2=O)CCCCCC3)C2CC2)c1 (stereo not shown)

>  <inhibition at 30 µM [%]>
99.8

$$$$

Which inhibition at 30 µM is listed for O=C(CCN1CCCCC1)Nc1cccc(C(c2c(O)c3c(oc2=O)CCCCCC3)C2CC2)c1 (stereo not shown) ?
104

###

Catalogue of inhibition at 3.3 µM values
biological target: HIV-1 protease (Human immunodeficiency virus type 1 group M subtype B, UniProt P04585); test: biochemical; conditions: read-out: HIV-1 Protease % Inhib, dose 3.300 uM
Dear colleague, please return just the value in %, with no unit written.

>  <compound>
O=c1oc2c(c(O)c1C(c1cccc(NS(=O)(=O)c3cccc(N4CCCS4(=O)=O)c3)c1)C1CC1)CCCCCC2 (stereo not shown)

>  <tgt>
HIV-1 protease (Human immunodeficiency virus type 1 group M subtype B, UniProt P04585)

>  <property measured>
inhibition at 3.3 µM

>  <readout units>
%

>  <reading>
98.3

$$$$
>  <compound>
O=c1oc2c(c(O)c1C(c1cccc(NS(=O)(=O)c3cccc(S(=O)(=O)N4CCOCC4)c3)c1)C1CC1)CCCCCC2 (stereo not shown)

>  <tgt>
HIV-1 protease (Human immunodeficiency virus type 1 group M subtype B, UniProt P04585)

>  <property measured>
inhibition at 3.3 µM

>  <readout units>
%

>  <reading>
104

$$$$
>  <compound>
O=c1oc2c(c(O)c1C(c1cccc(NS(=O)(=O)c3cccc(C(F)(F)F)c3)c1)C1CC1)CCCCCC2 (stereo not shown)

>  <tgt>
HIV-1 protease (Human immunodeficiency virus type 1 group M subtype B, UniProt P04585)

>  <property measured>
inhibition at 3.3 µM

>  <readout units>
%

>  <reading>
110

$$$$
>  <compound>
O=c1oc2c(c(O)c1C(c1cccc(NS(=O)(=O)c3ccc([N+](=O)[O-])cc3)c1)C1CC1)CCCCCC2 (stereo not shown)

>  <tgt>
HIV-1 protease (Human immunodeficiency virus type 1 group M subtype B, UniProt P04585)

>  <property measured>
inhibition at 3.3 µM

>  <readout units>
%

>  <reading>
98.2

$$$$
>  <compound>
CCCS(=O)(=O)Nc1cccc(C(c2c(O)c3c(oc2=O)CCCCCC3)C2CC2)c1 (stereo not shown)

>  <tgt>
HIV-1 protease (Human immunodeficiency virus type 1 group M subtype B, UniProt P04585)

>  <property measured>
inhibition at 3.3 µM

>  <readout units>
%

>  <reading>
108

$$$$
>  <compound>
CC(C)C(c1cccc(NS(=O)(=O)c2cccnc2)c1)c1c(O)c2c(oc1=O)CCCCCC2 (stereo not shown)

>  <tgt>
HIV-1 protease (Human immunodeficiency virus type 1 group M subtype B, UniProt P04585)

>  <property measured>
inhibition at 3.3 µM

>  <readout units>
%

>  <reading>
95.1

$$$$

# query: inhibition at 3.3 µM of entry O=c1oc2c(c(O)c1C(c1cccs1)C1CC1)CCCCCC2 (stereo not shown)
96.2
